Recorded solubility kinetic by entry
- setup conditions: buffer; pH 7.4; 200.0 µM

{"columns": ["molecule", "solubility kinetic"],
 "data": [
  ["OC1=C(O)c2nc3cc(F)ccc3nc21", "> 30.6 µg/mL"],
  ["Cc1cc(C)c(NC(=S)NC(CO)(CO)CO)c(C)c1", "> 44.8 µg/mL"],
  ["Cc1ccc(Sc2ncccc2NC(=O)c2ccccc2Cl)cc1", "2 µg/mL"],
  ["CS(=O)(=O)N1CCN(CC(=O)NC2CCCC2)CC1", "> 43.4 µg/mL"],
  ["Fc1cccc(NC(=S)NCc2ccccc2Cl)c1", "1.6 µg/mL"],
  ["Clc1ccc(CN2CCSCC2)cc1Cl", "2.6 µg/mL"],
  ["Cc1cccc(N2C(=O)CN(Cc3ccccc3)C2=S)c1", "10 µg/mL"],
  ["CCc1ccc2nc(/N=C(\\N)NC(=O)c3ccccc3)nc(C)c2c1", "< 0.1 µg/mL"],
  ["O=C(c1ccccc1)N1CCN(CCc2ccccn2)CC1", "> 44.3 µg/mL"],
  ["N#CCCN(Cc1ccccc1)C(=O)c1cccs1", "> 40.6 µg/mL"],
  ["Cc1cccc(C)c1NC(=O)CNC(=O)c1cccnc1", "> 42.5 µg/mL"],
  ["CC1CC(C)CN(C(=O)c2ccc3ncsc3c2)C1 (stereo not drawn)", "> 41.2 µg/mL"],
  ["CC(C(=O)NCc1cccnc1)c1ccc([N+](=O)[O-])cc1 (stereo not drawn)", "> 42.8 µg/mL"],
  ["CN(C)c1nc(N)c([N+](=O)[O-])c(NCC2CCCO2)n1 (stereo not drawn)", "40.5 µg/mL"],
  ["COc1ccc(OC)c(N=C(N)N=C(N)N)c1", "> 35.6 µg/mL"],
  ["O=C(CNC(=O)c1cccs1)NCCc1ccco1", "> 41.7 µg/mL"],
  ["COc1ccc(S(=O)(=O)N(C)CC(=O)NC2CC2)cc1OC", "> 49.3 µg/mL"],
  ["CCCOc1ccc(C(CC(=O)O)NC(=O)Cc2ccccc2)cc1 (stereo not drawn)", "> 51.2 µg/mL"]
]}

---

- setup conditions: buffer; pH 7.4; 200.0 µM

{"columns": ["compound", "solubility kinetic"],
 "data": [
  ["Cc1cc(C)c(C(=O)Nc2cccc(F)c2)c(Cl)n1", "> 41.8 µg/mL"],
  ["CCC1CN(C(=O)NCc2ccc(C)cc2)c2cc(Cl)ccc2O1 (stereo not drawn)", "< 0.4 µg/mL"],
  ["CCCc1cc(=O)[nH]c(SCC(=O)N2c3ccccc3CC2C)n1 (stereo not drawn)", "> 51.5 µg/mL"],
  ["Cc1ccccc1OCCC(=O)OCC(=O)NC1CCCCC1", "> 47.9 µg/mL"],
  ["O=C(CC(=O)NCCc1ccccc1)NCCc1ccccc1", "> 46.6 µg/mL"],
  ["Cc1ccc(S(=O)(=O)NC(=O)Nc2ccc(C)cn2)cc1", "> 45.8 µg/mL"],
  ["CCN1CCN(C(=O)C23CCC(C)(C(=O)C2Br)C3(C)C)CC1 (stereo not drawn)", "> 55.7 µg/mL"],
  ["COc1ccc(OCC(=O)NS(=O)(=O)c2ccccc2)cc1", "> 48.2 µg/mL"]
]}

---

Recorded solubility kinetic by entry
- setup conditions: buffer; pH 7.4; 200.0 µM

{"columns": ["compound", "measure unit", "inequality operator", "solubility kinetic"],
 "data": [
  ["CCCCCC(=O)NC(=S)Nc1ccc2oc(=O)ccc2c1", "µg/mL", "=", 1.5],
  ["O=C(O)c1ccc(OCC(O)Cn2c3ccccc3c3ccccc32)cc1 (centres undefined)", "µg/mL", ">", 54.2],
  ["Cc1c(C(=O)O)c(C(=O)O)c2n1CCS2", "µg/mL", ">", 34.1],
  ["CC(C)CNC1CCS(=O)(=O)C1.Cl (centres undefined)", "µg/mL", ">", 34.2],
  ["O=C(CSc1nc(-c2ccccc2)cs1)NCCCN1CCCC1=O", "µg/mL", ">", 56.3],
  ["COC(=O)Nc1ccc(S(=O)(=O)N2CCCC(C(=O)O)C2)cc1 (centres undefined)", "µg/mL", "=", 50.4],
  ["Cc1ccc(NC(=O)C(=O)NCc2ccncc2)cc1", "µg/mL", "=", 29.6],
  ["COc1ccc(NC(=O)C2Cc3ccccc3O/C2=N\\O)cc1 (centres undefined)", "µg/mL", "=", 10.2],
  ["Nc1ccccc1C(=O)Nc1cccc2ccccc12", "µg/mL", "=", 24.7],
  ["O=C(CN1CCCCCC1)Nc1ccccc1[N+](=O)[O-]", "µg/mL", "=", 14],
  ["Cc1cc(C)cc(NC(=S)N2CCCC2)c1", "µg/mL", ">", 35.2],
  ["CCc1ccc(C(C)NC(=O)C2CCCO2)cc1 (centres undefined)", "µg/mL", "=", 34.9],
  ["CCN(CC)CCCN=C(C)C1=C(O)c2ccccc2C1=O", "µg/mL", ">", 45.1],
  ["O=S(=O)(/C=C/c1ccccc1)N1CCOCC1", "µg/mL", ">", 38],
  ["O=C1CCCN=C(Nc2ccc(F)c(Cl)c2)S1", "µg/mL", "=", 3.1],
  ["Cc1cc(-c2ccccc2)nc(-c2ccccc2)c1C", "µg/mL", "<", 0.6],
  ["Nc1ncnc(SCc2c(F)cccc2Cl)n1", "µg/mL", "=", 2.8],
  ["CCC(NC(=O)c1cncc(Br)c1)c1ccccc1 (centres undefined)", "µg/mL", ">", 47.9],
  ["N#Cc1c(-c2ccccc2)nc2n1CCS2", "µg/mL", "=", 7.3],
  ["Cc1cc(S(=O)(=O)NCc2cccnc2)ccc1F", "µg/mL", "=", 33.7],
  ["O=C(CNC(=O)c1ccccc1Cl)NCCc1cccs1", "µg/mL", ">", 48.4],
  ["Cc1nc2sc(C(N)=O)c(N)c2c2c1CCCC2", "µg/mL", "=", 9.3],
  ["O=C(O)C1C2C=CC(C2)C1C(=O)NCc1cccc(Cl)c1 (centres undefined)", "µg/mL", "=", 43.3],
  ["Cl.NC(=S)NC(c1ccccc1)c1ccncc1 (centres undefined)", "µg/mL", "=", 39.5],
  ["Cc1nn(CC(=O)NC2CC2)c(C)c1S(=O)(=O)NC(C)(C)C", "µg/mL", ">", 49.3],
  ["COc1ccc(CC(=O)NC(CC(=O)O)c2cccc([N+](=O)[O-])c2)cc1 (centres undefined)", "µg/mL", ">", 53.8],
  ["CCOc1ccc(NC(=O)COC(=O)C2CC2C)cc1 (centres undefined)", "µg/mL", ">", 41.6],
  ["Cc1ccc(-c2nc3cc(N)ccc3o2)cc1Br", "µg/mL", "=", 0.3],
  ["Cc1ccc(C(=O)/C=C/N(C)C)cn1", "µg/mL", "=", 26.6],
  ["COc1ccc(C(=O)Nc2ccccc2C(=O)NCc2ccco2)cc1", "µg/mL", "=", 2.1],
  ["Cc1cc(C(=O)Nc2ccncc2)c2ccccc2n1", "µg/mL", "=", 26.3],
  ["Cc1ccc(NC(=O)CN(C)C(=O)Cc2ccccc2F)cc1", "µg/mL", ">", 47.2],
  ["Cc1cc(=O)oc2cc(OCC(=O)OC(C)C(=O)Nc3ccc(S(N)(=O)=O)cc3)ccc12 (centres undefined)", "µg/mL", ">", 69.1],
  ["O=C(NCCCNC(=O)c1cnccn1)c1cccc(F)c1", "µg/mL", "=", 40.2],
  ["O=C(NCc1ccc(F)cc1)Nc1ccccc1", "µg/mL", "=", 9.3],
  ["COc1ccc(-c2cc(C(=O)NC3CCCC3)no2)cc1", "µg/mL", "=", 0.4],
  ["CCOc1ccc(N/C=C/C(=O)c2ccc(OC)cc2)cc1", "µg/mL", "<", 0.6],
  ["CC(C)(C)c1ccc(N2C(=O)CC(c3ccccc3)C2=O)cc1 (centres undefined)", "µg/mL", "<", 0.7],
  ["Cc1nc(SCC(=O)Nc2ccc(S(=O)(=O)N3CCOCC3)cc2)c2c(C)c(C)sc2n1", "µg/mL", "=", 7.3]
]}

---

Recorded solubility kinetic by entry
- setup conditions: buffer; pH 7.4; 200.0 µM
measure: solubility kinetic

{"columns": ["compound", "measure", "val"],
 "data": [
  ["Cc1ccc(N2CC(C(=O)NCCN3CCOCC3)CC2=O)cc1C (centres undefined)", "solubility kinetic", "> 51.8 µg/mL"],
  ["O=C(O)C1CCN(C(=O)Cc2ccccc2)CC1", "solubility kinetic", "> 37.1 µg/mL"],
  ["CCOC(=O)c1nc2c(=O)n(C)c(=O)n(C)c2n(C)c1=O", "solubility kinetic", "> 44.1 µg/mL"],
  ["O=C(Nc1ccccc1C(=O)N1CCCCCC1)c1ccc(F)cc1", "solubility kinetic", "> 51.1 µg/mL"],
  ["O=Cc1c(NCCCN2CCCC2=O)c2ccccc2[nH]c1=O", "solubility kinetic", "> 47 µg/mL"],
  ["O=C(O)c1cc(Cl)c(Cl)cc1C(=O)NCc1ccco1", "solubility kinetic", "> 47.1 µg/mL"],
  ["COc1ccc(CNc2nccs2)cc1OC", "solubility kinetic", "> 37.5 µg/mL"],
  ["COc1ccc(C(=O)N2CCC3(CC2)NCCc2[nH]cnc23)cc1", "solubility kinetic", "> 49 µg/mL"],
  ["Cn1c(=NC(=O)c2cccc([N+](=O)[O-])c2)sc2ccccc21", "solubility kinetic", "< 0.2 µg/mL"],
  ["COc1cc(CSc2nc(-c3ccccc3)cc(=O)[nH]2)cc(OC)c1", "solubility kinetic", "< 0.4 µg/mL"],
  ["O=C(Cc1csc(NC(=O)c2ccc(F)cc2)n1)NO", "solubility kinetic", "> 44.3 µg/mL"],
  ["COc1ccc(OCC(O)CNS(=O)(=O)c2cccs2)cc1 (centres undefined)", "solubility kinetic", "> 51.5 µg/mL"],
  ["CCOC(=O)C1CCN(S(=O)(=O)c2cn(C)cn2)CC1", "solubility kinetic", "> 45.2 µg/mL"],
  ["CN(C)/C=N/NC(=O)C1Cc2c(ccc3ccccc23)O1 (centres undefined)", "solubility kinetic", "> 42.5 µg/mL"],
  ["O=C(O)c1ccc2c(=O)n(-c3ccc(F)cc3)c(=S)[nH]c2c1", "solubility kinetic", "> 47.4 µg/mL"],
  ["O=C(CN1C(=O)c2cccc([N+](=O)[O-])c2C1=O)NCc1ccccc1", "solubility kinetic", "> 50.9 µg/mL"],
  ["Cc1ccc(-n2c(C)nc3ccccc3c2=O)c(C)c1", "solubility kinetic", "> 39.6 µg/mL"],
  ["Cc1ccc(S(=O)(=O)Nc2csc(C)c2C(=O)O)cc1", "solubility kinetic", "> 46.7 µg/mL"],
  ["Cn1cc(CCC(=O)NC2CC2)c2ccccc21", "solubility kinetic", "> 36.3 µg/mL"],
  ["O=C(N/N=C/c1ccc2c(c1)OCO2)C1CC1", "solubility kinetic", "> 34.8 µg/mL"],
  ["CC(Sc1nnc(Cc2ccccc2)o1)C(=O)NC1(C#N)CCCCC1 (centres undefined)", "solubility kinetic", "> 55.6 µg/mL"],
  ["O=C(NCC(c1ccco1)N1CCCCC1)c1cccnc1 (centres undefined)", "solubility kinetic", "> 44.9 µg/mL"],
  ["Cc1cc(C)c2c(n1)sc1c(=O)n(Cc3ccc(F)cc3)cnc12", "solubility kinetic", "< 0.2 µg/mL"],
  ["COCCNC(=O)NC(=O)CSc1nc(C)c(C)c(C)n1", "solubility kinetic", "> 46.9 µg/mL"],
  ["CCn1nc(C(=O)NNC(=O)C(Cc2ccccc2)NC(N)=O)c2ccccc2c1=O (centres undefined)", "solubility kinetic", "> 63.4 µg/mL"],
  ["Cc1ccc(C)c(Cn2cnc3c(oc4ccccc43)c2=O)c1", "solubility kinetic", "< 0.3 µg/mL"],
  ["COc1cc(C=NNC(=O)c2ccccc2-n2cccc2)ccc1O", "solubility kinetic", "> 50.3 µg/mL"],
  ["CC(=O)Nc1ccc(C(=O)N2CC(=O)NC(=O)C2)cc1", "solubility kinetic", "> 41.3 µg/mL"],
  ["Cc1ccc(C)n1CCN1CCN(C(=O)CC#N)CC1", "solubility kinetic", "> 41.2 µg/mL"]
]}
